# Test system: hTeloCFID (DNA, i motif) TAACCCTAACCCTAACCCTAACCC
# assay-name: fluorescent intercalator displacement
# experimental-setup: Na+ (10 mM NaH2PO4); pH 5.7; thiazole orange 2 μM displaced
measurement-type: DC50 (μM)

a = CN(C)c1ccc(Nc2c3ccc(NC(=O)CCN4CCCC4)cc3nc3cc(NC(=O)CCN4CCCC4)ccc23)cc1
b = O=C1c2c(O)ccc(O)c2C(=O)c2c(NCCNCCO)ccc(NCCNCCO)c21
Name the one with the greater DC50 value, either a or b as given. Identify your pick by its label. b

a = C[n+]1cc(NC(=O)c2ccc3ccc4ccc(C(=O)Nc5cc6ccccc6[n+](C)c5)nc4c3n2)cc2ccccc21
b = NCCOc1cc(C(=O)Nc2cc(OCCN)c3ccccc3n2)nc(C(=O)Nc2cc(OCCN)c3ccccc3n2)c1
c = COc1ccc2cc3[n+](cc2c1OC)CCc1cc2c(cc1-3)OCO2
List the 3 entries from lowest DC50 to highest DC50 value. The reply should contain the labels ordered as requested. a, c, b

###

# Test system: mutTel24FID (DNA, G4) TTTGGGTTAGGGTTAGGGTTAGGGA
# assay-name: fluorescent intercalator displacement
# experimental-setup: K+ (10 mM KH2PO4); pH 5.7; thiazole orange 2 μM displaced
measurement-type: DC50 (μM)

P = COc1ccc2cc3[n+](cc2c1OC)CCc1cc2c(cc1-3)OCO2
Q = NCCOc1cc(C(=O)Nc2cc(OCCN)c3ccccc3n2)nc(C(=O)Nc2cc(OCCN)c3ccccc3n2)c1
R = C[n+]1cc(NC(=O)c2ccc3ccc4ccc(C(=O)Nc5cc6ccccc6[n+](C)c5)nc4c3n2)cc2ccccc21
Order them by DC50, ascending: the compounds above. The reply should contain the labels ordered as requested. R, P, Q

a = O=C1c2c(O)ccc(O)c2C(=O)c2c(NCCNCCO)ccc(NCCNCCO)c21
b = CN(C)c1ccc(Nc2c3ccc(NC(=O)CCN4CCCC4)cc3nc3cc(NC(=O)CCN4CCCC4)ccc23)cc1
Which has the smaller recorded DC50, a or b ? Identify your pick by its label. b

###

# System: hTeloC (DNA, i motif) CCCTAACCCTAACCCTAACCCT
# assay-name: CD melting
# experimental-setup: Na+ (10 mM sodium phosphate); pH 5.7; 5 equivalents of compound, 10-15 μM DNA
measurement-type: ΔT1/2 (°C)

GET /value?item= O=C1c2c(O)ccc(O)c2C(=O)c2c(NCCNCCO)ccc(NCCNCCO)c21 &field=ΔT1/2 returns -9.9

GET /value?item= C[n+]1cc(NC(=O)c2ccc3ccc4ccc(C(=O)Nc5cc6ccccc6[n+](C)c5)nc4c3n2)cc2ccccc21 &field=ΔT1/2 returns -6.8

GET /value?item= COc1ccc2cc3[n+](cc2c1OC)CCc1cc2c(cc1-3)OCO2 &field=ΔT1/2 returns -0.8

P = Cc1cc2c3c([n+](C)c4ccc(F)cc4c3c1)-c1cc(F)ccc1N2C
Q = CN(C)c1ccc(Nc2c3ccc(NC(=O)CCN4CCCC4)cc3nc3cc(NC(=O)CCN4CCCC4)ccc23)cc1
Name the one with the greater ΔT1/2 value, either P or Q as given. Identify your pick by its label. P
(P: -0.3 °C, Q: -9.2 °C)

###

Collected ΔT1/2 values appear next to each entry.
# Tested on: mutTel24 (DNA, G4) TTGGGTTAGGGTTAGGGTTAGGGA
# assay-name: CD melting
# experimental-setup: K+ (10 mM potassium phosphate); pH 5.7; 5 equivalents of compound, 10-15 μM DNA

Use these answered entries as a reference point.
GET /value?item= COc1ccc2cc3[n+](cc2c1OC)CCc1cc2c(cc1-3)OCO2 &field=ΔT1/2 returns +12.4 ± 0.5 °C

GET /value?item= O=C1c2c(O)ccc(O)c2C(=O)c2c(NCCNCCO)ccc(NCCNCCO)c21 &field=ΔT1/2 returns +4.5 ± 0.5 °C

GET /value?item= C[n+]1cc(NC(=O)c2ccc3ccc4ccc(C(=O)Nc5cc6ccccc6[n+](C)c5)nc4c3n2)cc2ccccc21 &field=ΔT1/2 returns +14.4 ± 0.5 °C

***
GET /value?item= CN(C)c1ccc(Nc2c3ccc(NC(=O)CCN4CCCC4)cc3nc3cc(NC(=O)CCN4CCCC4)ccc23)cc1 &field=ΔT1/2 returns +8.9 ± 0.5 °C

GET /value?item= NCCOc1cc(C(=O)Nc2cc(OCCN)c3ccccc3n2)nc(C(=O)Nc2cc(OCCN)c3ccccc3n2)c1 &field=ΔT1/2 returns +8.8 ± 0.5 °C

GET /value?item= Cc1cc2c3c([n+](C)c4ccc(F)cc4c3c1)-c1cc(F)ccc1N2C &field=ΔT1/2 returns +20.6 ± 0.5 °C
